# Test system: HL-60
# Experimental protocol: NCI tumour cell line growth inhibition, 48 h
Active and inactive are the calls of the source. Cut-off read from the data, not from the text of the source: active = GI50 up to about 1.1 µM and inactive = higher.

{"Compound": "CN(C)c1ccc(C(Cc2ccccc2)C2NC(=S)NC2=O)cc1 (configuration not stated)", "GI50": "29.1 µM (inactive)"}
{"Compound": "COc1nc(C#CC2CCCCC2)nc(OC)n1", "GI50": "1.12 µM (inactive)"}
{"Compound": "CCOC(=O)C(NC(=O)c1cccc(Cl)c1)(Nc1ccc(S(=O)(=O)Nc2cc(C)nc(C)n2)cc1)C(F)(F)F (configuration not stated)", "GI50": "> 100 µM (inactive)"}
{"Compound": "CC1CCC(C(=O)O)(C(Br)C(=O)O)CC1 (configuration not stated)", "GI50": "> 100 µM (inactive)"}
{"Compound": "Clc1ccc(C2SCc3nc4ccccc4n32)cc1 (configuration not stated)", "GI50": "5.24 µM (inactive)"}
{"Compound": "Cc1nc2ccc(N)cc2nc1O", "GI50": "> 100 µM (inactive)"}
{"Compound": "Cc1ccc2c(c1)C1(C)OC(CC(N)C1O)O2 (configuration not stated)", "GI50": "> 100 µM (inactive)"}

###

# System: SK-MEL-2
# Experimental protocol: NCI tumour cell line growth inhibition, 48 h
Active and inactive are the calls of the source. No stated cut-off is given here; in the data, active = GI50 up to about 1.1 µM and inactive = higher.
Possible outcomes: True = active, False = inactive

{"Compound": "CC1CCC(C(=O)O)(C(Br)C(=O)O)CC1 (stereo not given)", "Class": "False"}
{"Compound": "CCCCc1cc2c(cc1O)CCC1C2CC[C@@]2(C)C1CC[C@@H]2O (stereo not given in full)", "Class": "False"}
{"Compound": "O=C1CC(C(=O)O)Cc2c(Br)ccc(O)c21 (stereo not given)", "Class": "False"}
{"Compound": "CC(=O)c1sc(-c2nc(C)c(C(=O)/C=C\\c3ccc(/C=C\\C(=O)c4sc(-c5nc(C)c(C(C)=O)s5)nc4C)cc3)s2)nc1C", "Class": "False"}
{"Compound": "COC(=O)c1cc2c(cc1Cl)Sc1nnc(Nc3ccccc3)n1S2(=O)=O", "Class": "False"}
{"Compound": "O=C(O)CN1C(=O)c2ccc(NC(=O)C(=O)O)cc2S1(=O)=O", "Class": "False"}
{"Compound": "CC1=CC(O)C(O)C2(C)C1CC1OC(=O)C(O)C3C(C)C(O)C4(O)OCC13C42 (stereo not given)", "Class": "False"}
{"Compound": "C=CCn1c(=O)c(C(=O)NC(=O)OCC)cn(C2CCCCC2)c1=O", "Class": "False"}
{"Compound": "O=C1/C(=C/c2c(Cl)[nH]c3ccccc23)c2ccccc2N1c1ccccc1", "Class": "False"}
{"Compound": "CC(=O)NC1C(OCc2ccccc2)OC(CO)C(O)C1OCC(=O)N1CCCC1C(=O)NC(CCC(=O)NCCCCCNc1c2ccccc2nc2cccc([N+](=O)[O-])c12)C(N)=O (stereo not given)", "Class": "True"}

###

# Test system: A549
# Experimental protocol: NCI tumour cell line growth inhibition, 48 h
Activity calls are given as the source filed them. Rule as the data show it: active = GI50 up to about 1.1 µM and inactive = higher.
Form field: GI50 (one value per entry).
Observable: GI50

{"Compound": "Cc1c(-c2ccc(O)c(O)c2)oc(=O)c2c(O)cccc12", "Observable": "GI50", "Result": "7.93 µM (inactive)"}
{"Compound": "NC1=NC(=O)C(CC(=O)Nc2ccc([N+](=O)[O-])cc2[N+](=O)[O-])S1 (stereo unspecified)", "Observable": "GI50", "Result": "> 100 µM (inactive)"}
{"Compound": "[O-][n+]1onc2c1/C(=N/O)CCC2", "Observable": "GI50", "Result": "> 100 µM (inactive)"}
{"Compound": "CN(C)c1cccc(-c2cc(=S)c3cc4c(cc3[nH]2)OCO4)c1", "Observable": "GI50", "Result": "4.85 µM (inactive)"}
{"Compound": "c1ccc(-c2nnc(CCCCCCCCc3nnc(-c4ccccc4)o3)o2)cc1", "Observable": "GI50", "Result": "32 µM (inactive)"}
{"Compound": "Cc1nnc(CC#N)n1NC(=O)CC#N", "Observable": "GI50", "Result": "> 100 µM (inactive)"}
